biological target: human JAK3 (Homo sapiens, UniProt P52333); construct: The kinase domain of human JAK3 was amplified; GST (N); made in house; host or cells: Sf9 insect cells (baculovirus); test: Alphascreen tyrosine kinase enzyme assay, JAK3 kinase domain; type: biochemical; conditions: read-out: JAK3 IC50_nM
Sequence (P52333 822-1111 limits assumed): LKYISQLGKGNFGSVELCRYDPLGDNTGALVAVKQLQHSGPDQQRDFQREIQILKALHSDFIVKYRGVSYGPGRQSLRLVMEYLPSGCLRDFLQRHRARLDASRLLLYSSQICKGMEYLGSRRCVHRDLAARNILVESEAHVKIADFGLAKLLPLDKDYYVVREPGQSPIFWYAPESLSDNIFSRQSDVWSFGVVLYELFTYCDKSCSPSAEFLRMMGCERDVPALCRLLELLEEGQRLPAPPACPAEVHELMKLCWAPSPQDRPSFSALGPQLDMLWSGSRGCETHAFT
measured_attribute: IC50

[[record]]
compound = "C=CC(=O)N(C)c1ccc(Sc2nc(Nc3ccc(N4CCOCC4)cc3)ncc2C)cc1 [Compound 173]"
measured_attribute = "IC50"
test_value = "< 100 nM"

[[record]]
compound = "Cc1cnc(Nc2ccc(N3CCOCC3)cc2)nc1Sc1ccc(NC(=O)/C=C/C(=O)O)cc1 [Compound 387]"
measured_attribute = "IC50"
test_value = "< 100 nM"

[[record]]
compound = "Cc1cnc(Nc2ccc(N3CCOCC3)cc2)nc1Sc1ccc(C=O)cc1 [Compound 219]"
measured_attribute = "IC50"
test_value = "< 500 nM"

[[record]]
compound = "C=CC(=O)Nc1ccc(Sc2nc(Nc3ccc(N4CCC(C(=O)OCC)CC4)cc3)ncc2C)cc1 [Compound 292]"
measured_attribute = "IC50"
test_value = "< 100 nM"

[[record]]
compound = "C=CC(=O)Nc1ccc(Sc2ccnc(Nc3cccc(C(=O)OC)c3)n2)cc1 [Compound 356]"
measured_attribute = "IC50"
test_value = "< 100 nM"


----------
Entries annotated with measured pIC50
molecular target: human JAK3 (Homo sapiens, UniProt P52333); construct: The kinase domain of human JAK3 was amplified; GST (N); made in house; host or cells: Sf9 insect cells (baculovirus); assay: Alphascreen tyrosine kinase enzyme assay, JAK3 kinase domain; assay type: biochemical; settings: read-out: JAK3 IC50_nM
pIC50: −log10 of the molar value.
measured_attribute: pIC50

[[record]]
compound = "C=CC(=O)Nc1ccc(Sc2nc(Nc3ccc(OC)c(O)c3)ncc2C)cc1"
test_value = "> 7.00"

[[record]]
compound = "C=CC(=O)Nc1ccc(Sc2ccnc(Nc3ccc(N4CCC(N5CCCC5)CC4)cc3)n2)cc1"
test_value = "> 7.00"

[[record]]
compound = "Cc1cnc(Nc2ccc(N3CCOCC3)cc2)nc1Sc1ccc(N)cc1"
test_value = "> 7.00"

[[record]]
compound = "C=CC(=O)Nc1ccc(Sc2ccnc(Nc3ccc(Cl)cc3)n2)cc1"
test_value = "> 7.00"

[[record]]
compound = "c1cc(Sc2ccc(Cn3cncn3)cc2)nc(Nc2ccc(N3CCOCC3)cc2)n1"
test_value = "> 6.30"

[[record]]
compound = "CC#CC(=O)Nc1ccc(Sc2ccnc(Nc3ccc(N4CCOCC4)cc3)n2)cc1"
test_value = "> 7.00"

[[record]]
compound = "C=CC(=O)Nc1ccc(Sc2nc(Nc3ccc(OCCCN(CC)CC)cc3)ncc2C)cc1"
test_value = "> 7.00"

[[record]]
compound = "C=CC(=O)Nc1ccc(Sc2ccnc(Nc3cccc(S(N)(=O)=O)c3)n2)cc1"
test_value = "> 7.00"

[[record]]
compound = "C=CC(=O)Nc1ccc(Sc2nc(Nc3ccc(N4CCCC(O)C4)cc3)ncc2C)cc1 (stereo not shown)"
test_value = "> 7.00"

[[record]]
compound = "C=CC(=O)Nc1ccc(Sc2ccnc(Nc3ccc(C(=O)OC)cc3)n2)cc1"
test_value = "> 7.00"

[[record]]
compound = "C=CC(=O)Nc1ccc(Sc2nc(Nc3ccc(N4CCOCC4)cc3)ncc2C)c(Cl)c1"
test_value = "> 7.00"

[[record]]
compound = "Cc1cnc(Nc2cccc(NS(C)(=O)=O)c2)nc1Sc1ccc(CO)cc1"
test_value = "> 6.30"

[[record]]
compound = "C=CC(=O)Nc1cccc(Nc2nccc(SC)n2)c1"
test_value = "> 7.00"

[[record]]
compound = "CC(=O)Nc1ccc(Sc2nc(Nc3ccc(N4CCOCC4)cc3)ncc2C)cc1"
test_value = "> 6.30"

[[record]]
compound = "C=CC(=O)Nc1cccc(Nc2nccc(Sc3ccc(OC)cc3)n2)c1"
test_value = "> 7.00"

[[record]]
compound = "c1cc(Sc2ccc(Cn3cnnn3)cc2)nc(Nc2ccc(N3CCOCC3)cc2)n1"
test_value = "> 6.30"

[[record]]
compound = "O=C(Nc1ccc(Sc2ccnc(Nc3ccc(N4CCOCC4)cc3)n2)cc1)C1CC1(F)Cl (stereo not shown)"
test_value = "> 6.30"

[[record]]
compound = "NC(=O)c1ccc(Sc2ccnc(Nc3ccc(N4CCOCC4)cc3)n2)cc1"
test_value = "> 6.30"

[[record]]
compound = "Cc1cnc(Nc2ccc(N3CCOCC3)cc2)nc1Sc1ccc(NC(=O)CCC(=O)O)cc1"
test_value = "> 7.00"

[[record]]
compound = "C=CC(=O)Nc1ccc(Sc2ccnc(Nc3cccc(OC)c3)n2)cc1"
test_value = "> 7.00"

[[record]]
compound = "N#Cc1ncn(Cc2ccc(Sc3ccnc(Nc4ccc(N5CCOCC5)cc4)n3)cc2)c1N"
test_value = "> 6.30"

[[record]]
compound = "Cc1cnc(Nc2ccc(N3CCOCC3)cc2)nc1Sc1ccc(NC(=O)/C=C\\C(=O)O)cc1"
test_value = "> 7.00"

